experiment description: Gelling ability of basic amino acid derivatives (test tube tilting, visual appearance)
Format: physicochemical
measurement parameters: saline; heated to 100° C., stood at 25° C. for 2 hr
parameter measured: minimum gelling concentration (g/L)
Write it as a number; the unit g/L goes unstated.

compound: CCCCCCCCCCCC(=O)NCCCC[C@H](NC(=O)CC(CCCCCCCCCC)C(=O)[O-])C(=O)O.[Na+] (stereo partly shown)
result units: g/L
minimum gelling concentration: 50

compound: CCCCCCCCCCCC(=O)NCCCC[C@H](NC(=O)CCCCCCCCC(=O)[O-])C(=O)O.[K+]
result units: g/L
minimum gelling concentration: 4

compound: CCCCCCCCCCCC(=O)NCCCC[C@H](NC(=O)CC(CCCCCCCCCC)C(=O)[O-])C(=O)OCC.[Na+] (stereo partly shown)
result units: g/L
minimum gelling concentration: 20

Task item: What measured minimum gelling concentration goes with CCCCCCCCCCCC(=O)NCCCC[C@H](NC(=O)CC(CCCCCCCCCC)C(=O)[O-])C(=O)OCC.[K+] (stereo partly shown) ?
Reply: 20

Task item: What measured minimum gelling concentration goes with CCCCCCCCCCCC(=O)NCCCC[C@H](NC(=O)CCCCCCC(=O)[O-])C(=O)O.[Na+] ?
Reply: 30

Task item: What measured minimum gelling concentration goes with CCCCCCCCCCCC(=O)NCCCC[C@H](NC(=O)CC(CCCCCCCCCC)C(=O)[O-])C(=O)O.[K+] (stereo partly shown) ?
Reply: 50

Task item: What measured minimum gelling concentration goes with CCCCCCCCCCCC(=O)NCCCC[C@H](NC(=O)CCCCCCCCC(=O)[O-])C(=O)O.[Na+] ?
Reply: 4

* * *

experiment description: Gelling ability of basic amino acid derivatives (test tube tilting, visual appearance)
Type: physicochemical
measurement parameters: 0.1M aqueous NaCl solution; heated to 100° C., stood at 25° C. for 2 hr
Method: The gelling ability of various basic amino acid derivatives prepared in Production Examples 1-4, 7, 9 and 10 was confirmed. Test tube equipped with a cover was filled with water, saline, phosphate buffered saline (hereinafter indicated as PBS), and aqueous NaCl solution or aqueous KCl solution, and a basic amino acid derivative was added at various concentrations. The mixture was heated to 100° C. to achieve homogeneous dissolution, and stood at 25° C. for 2 hr. […]
// reported minimum gelling concentration for each item listed
Field: value (include unit after the number)

Look over these answered cases.
compound: CCCCCCCCCCCC(=O)NCCCC[C@H](NC(=O)CCCCCCCCC(=O)[O-])C(=O)O.[Na+]
reported: 4 g/L
--
compound: CCCCCCCCCCCC(=O)NCCCC[C@H](NC(=O)CC(CCCCCCCCCC)C(=O)[O-])C(=O)OCC.[K+] (stereo partly shown)
reported: 10 g/L
--
compound: CCCCCCCCCCCC(=O)NCCCC[C@H](NC(=O)CC(CCCCCCCCCC)C(=O)[O-])C(=O)OCC.[Na+] (stereo partly shown)
reported: 10 g/L

Then there is this compound:
Task item: What measured minimum gelling concentration goes with CCCCCCCCCCCC(=O)NCCCC[C@H](NC(=O)CC(CCCCCCCCCC)C(=O)[O-])C(=O)O.[K+] (stereo partly shown) ?
Reply: 20 g/L

* * *

experiment description: Gelling ability of basic amino acid derivatives (test tube tilting, visual appearance)
Type: physicochemical
Design: key: GT: transparent gel; GTL: translucent gel; GO: opaque gel
measurement parameters: PBS; heated to 100° C., stood at 25° C. for 2 hr
Description: The gelling ability of various basic amino acid derivatives prepared in Production Examples 1-4, 7, 9 and 10 was confirmed. Test tube equipped with a cover was filled with water, saline, phosphate buffered saline (hereinafter indicated as PBS), and aqueous NaCl solution or aqueous KCl solution, and a basic amino acid derivative was added at various concentrations. The mixture was heated to 100° C. to achieve homogeneous dissolution, and stood at 25° C. for 2 hr. […]
parameter measured: gel appearance

Look over these answered cases.
compound: CCCCCCCCCCCC(=O)NCCCC[C@H](NC(=O)CCCCCCC(=O)[O-])C(=O)O.[Na+] [Production Example 7]
gel appearance: GT
//
compound: CCCCCCCCCCCC(=O)NCCCC[C@H](NC(=O)CCCCCCCCC(=O)[O-])C(=O)O.[Na+] [Production Example 9]
gel appearance: GT
//
compound: CCCCCCCCCCCC(=O)NCCCC[C@H](NC(=O)CC(CCCCCCCCCC)C(=O)[O-])C(=O)O.[Na+] (some centres unmarked) [Production Example 3]
gel appearance: GO
//
compound: CCCCCCCCCCCC(=O)NCCCC[C@H](NC(=O)CCCCCCCCC(=O)[O-])C(=O)O.[K+] [Production Example 10]
gel appearance: GT

Then there is this compound:
Task item: What measured gel appearance goes with CCCCCCCCCCCC(=O)NCCCC[C@H](NC(=O)CC(CCCCCCCCCC)C(=O)[O-])C(=O)O.[K+] (some centres unmarked) [Production Example 4] ?
Reply: GO
